Where a name gives a salt, the structure may show the parent alone.
Below are IC50 values measured for factor Xa (Homo sapiens, UniProt P00742).
Give bare numbers, in µM.

Field: example entries. Status: answers known.
CC(C)C(NC(=O)C(CO)Nc1cccc(C(=N)N)c1)C(=O)NCc1ccccc1 (stereo not drawn) [Example 17, hydrochloride] : 7.6
CC(C)C(Nc1cccc(C(=N)N)c1)C(=O)NCC(=O)NCCc1c[nH]c2ccccc12 (stereo not drawn) [Example 10, hydrochloride] : 55
N=C(N)c1ccc(CNC(C(=O)NCC(=O)NCCc2ccccn2)c2ccc[nH]2)cc1 (stereo not drawn) [Example 21, hydrochloride] : 7.7

Would you mind giving IC50 for every compound in the list below?
1. CC(C)C(NC(=O)C(CO)Nc1cccc(C(=N)N)c1)C(=O)NCc1ccc2c(c1)OCO2 (stereo not drawn) [Example 18, hydrochloride]
2. N=C(N)c1cccc(NCC(=O)NCC(=O)NCCN2CCOCC2)c1 [Example 25, hydrochloride]
3. N=C(N)c1cccc(NCC(=O)NCC(=O)NCc2ccccc2)c1 [Example 14, hydrochloride]
4. CC(C)C(NC(=O)CNc1cccc(C(=N)N)c1)C(=O)NCCc1c[nH]c2ccccc12 (stereo not drawn) [Example 12, hydrochloride]
5. N=C(N)c1cccc(NC(C(=O)NCC(=O)NCCc2c[nH]c3ccccc23)c2cc[nH]n2)c1 (stereo not drawn) [Example 4, hydrochloride]
6. CC(Nc1cccc(C(=N)N)c1)C(=O)NCC(=O)NCCc1c[nH]c2ccccc12 (stereo not drawn) [Example 3, hydrochloride]
7. CCOC(=O)C(Nc1cccc(C(=N)N)c1)C(=O)NC(C(=O)NCCc1c[nH]c2ccccc12)C(C)C (stereo not drawn) [Example 5, hydrochloride]
8. COc1ccc(CNC(=O)CNC(=O)CNc2cccc(C(=N)N)c2)cc1OC [Example 16, hydrochloride]

8.6
22.8
7.15
14.5
26.4
21.9
5.7
9.2

Item under review: N=C(N)c1cccc(NC(CO)C(=O)NCC(=O)N2CCc3ccccc3C2)c1 (stereo not drawn) [Example 15, hydrochloride] . Reported IC50?
3.95
